Taken from paper PMC4869123.

molecular target: T1, biotinylated recombinant human IL-17A (rhIL-17, R&D Systems #317-ILB) (human, UniProt Q16552 24-155, biotinylated); details: both partners purified
T1 construct: IL-17A, human, recombinant; also called Biotinylated IL-17A; source: bought: R&D Systems
T1 sequence (Q16552 24-155): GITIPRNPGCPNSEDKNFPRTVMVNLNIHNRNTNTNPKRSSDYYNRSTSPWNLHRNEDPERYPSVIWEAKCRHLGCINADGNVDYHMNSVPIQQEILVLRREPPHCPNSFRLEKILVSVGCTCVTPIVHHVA
Where no end group is shown, it is not given here.
QUANTITY MEASURED: pIC50
Interpret pIC50 as the negative base-10 log of the concentration measured in mol/L.

Could you tell me which pIC50 is on file for Ac-AVVTMPADLWDWIRA (not fully specified (C-terminus), analogue of peptide 2, A at position 1; made on Rink resin; a C-terminal amide is surmised; source: synthetic peptide) [peptide 17] ? 6.78

Could you tell me which pIC50 is on file for Ac-IAVTMPADLWDWIRA (not fully specified (C-terminus), analogue of peptide 2, A at position 2; made on Rink resin; a C-terminal amide is surmised; source: synthetic peptide) [peptide 16] ? 6.83

Could you tell me which pIC50 is on file for Ac-IVVTIPADLWDWIRA (not fully specified (C-terminus), analogue of peptide 2, I at position 5; made on Rink resin; a C-terminal amide is surmised; source: synthetic peptide) [peptide 24] ? 8.52

Could you tell me which pIC50 is on file for Ac-IRVTMPADLWDWIRA (not fully specified (C-terminus), analogue of peptide 2, R at position 2; made on Rink resin; a C-terminal amide is surmised; source: synthetic peptide) [peptide 20] ? 6.93

Could you tell me which pIC50 is on file for Ac-IQVTMPADLWDWIRA (not fully specified (C-terminus), analogue of peptide 2, Q at position 2; made on Rink resin; a C-terminal amide is surmised; source: synthetic peptide) [peptide 19] ? 7.15

Could you tell me which pIC50 is on file for Ac-IVVTMPADLWDWIMA (not fully specified (C-terminus), analogue of peptide 2, M at position 14; made on Rink resin; a C-terminal amide is surmised; source: synthetic peptide) [peptide 27] ? 7.51

Could you tell me which pIC50 is on file for Ac-IVVTMPADLWDWIRK (not fully specified (C-terminus), analogue of peptide 2, K at position 15; made on Rink resin; a C-terminal amide is surmised; source: synthetic peptide) [peptide 3] ? 7.18

Could you tell me which pIC50 is on file for Ac-IVVTMPADLWDWIAA (not fully specified (C-terminus), analogue of peptide 2, A at position 14; made on Rink resin; a C-terminal amide is surmised; source: synthetic peptide) [peptide 4] ? 6.76

Could you tell me which pIC50 is on file for Ac-IVVTMPADLWDAIRA (analogue of peptide 2, A at position 12; made on Rink resin; a C-terminal amide is surmised; also called W12A variant; source: synthetic peptide) [peptide 6] ? 5.13
